System: J2 IgG LC Y31A, PDB:9OJV_1+PDB:9OJV_2
Assay: BLI steady state
Settings: 100 mM KCl; kinetic Kd 207 ± 21 nM; BLI: 25 mM Tris-HCl pH 7.5, 100-400 mM KCl (per row), 2 mM MgCl2, 25 C, IgG immobilized on Protein A; FP: 25 mM Tris-HCl pH 7.5, 100 mM KCl, 2 mM MgCl2, 21 C

{"columns": ["sequence.text", "Kd, nM"],
 "data": [
  ["GUUGUAAAGAAAUAUAGGCU / AGCCUAUAUUUCUUUACAAC [20-bp dsRNA]", 940]
]}
